- Method Description: chemical genetic growth profiling, strain panel (AID 1159580);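 note: tested at 20 µM; growth read once vehicle control cultures reached saturation at 30 °C; 1 = growth at the plate median or of vehicle wells; lower values mean less growth of the strain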
- Measurement Setup: S. cerevisiae deletion strains, growth OD, locus YMR129W
In all, about 5,500 compounds went through this assay and about 2,000 (36%) were called active. Another 18% or so got no clear call; they are omitted. Cut-off read from the data, not from the text of the source: active = normalized growth mostly below about 0.91 (no sharp cut-off); inconclusive = no clear call, values can overlap the other calls; inactive = mostly above about 0.92. The list shows a part of the results.
In this exercise, the only acceptable responses are active, inactive

IN: GET /call?item= NNC(=O)c1ccncc1 returns the recorded outcome of this test.
OUT: inactive

IN: GET /call?item= CC(=O)NCc1c(I)c(NC(C)=O)c(I)c(C(=O)O)c1I returns the recorded outcome of this test.
OUT: inactive

IN: GET /call?item= CNC(=O)O/N=C\C(C)(C)SC returns the recorded outcome of this test.
OUT: inactive

IN: GET /call?item= CC(C)(Sc1cc(C(C)(C)C)c(O)c(C(C)(C)C)c1)Sc1cc(C(C)(C)C)c(O)c(C(C)(C)C)c1 returns the recorded outcome of this test.
OUT: inactive

IN: GET /call?item= COc1cccc2c1C(=O)c1c(O)c3c(c(O)c1C2=O)C[C@@](O)(C(=O)CO)C[C@@H]3O[C@H]1C[C@H](N)[C@@H](O)[C@H](C)O1 returns the recorded outcome of this test.
OUT: inactive

IN: GET /call?item= COc1cccc2c1C(=O)c1c(O)c3c(c(O)c1C2=O)C[C@@](O)(C(C)=O)C[C@@H]3O[C@H]1C[C@H](N)[C@H](O)[C@H](C)O1 returns the recorded outcome of this test.
OUT: inactive

IN: GET /call?item= CC(=O)/C=C\[C@@H]1[C@@]2(C)CCCC(C)(C)C2CC[C@@]1(C)O (stereo partly specified) returns the recorded outcome of this test.
OUT: inactive

IN: GET /call?item= COc1cc(C(=O)NCCCCCC(=O)O)cc(OC)c1OC returns the recorded outcome of this test.
OUT: inactive

IN: GET /call?item= CC(C)(Oc1ccc(CCNC(=O)c2ccc(Cl)cc2)cc1)C(=O)O returns the recorded outcome of this test.
OUT: inactive

IN: GET /call?item= CC(C)(C#N)O[C@@H]1O[C@H](CO)[C@@H](O)[C@H](O)[C@H]1O returns the recorded outcome of this test.
OUT: inactive

IN: GET /call?item= Clc1ccccc1C(c1ccccc1)(c1ccccc1)n1ccnc1 returns the recorded outcome of this test.
OUT: active

###

Field: normalized growth. Provide a value for each of the compounds that follow.
- Method Description: chemical genetic growth profiling, strain panel (AID 1159580);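 note: tested at 20 µM; growth read once vehicle control cultures reached saturation at 30 °C; 1 = growth at the plate median or of vehicle wells; lower values mean less growth of the strain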
- Measurement Setup: S. cerevisiae deletion strains, growth OD, locus YPR135W, strain CTF4, stronger effect = lower value
Screen size: about 5,500 compounds; about 2,000 (36%) were called active. Not shown: some 18% with an inconclusive outcome. The list shows a part of the results.
Kindly provide the number alone.

IN: Given COc1cc(C2OC(c3cc(C)ccc3[N+](=O)[O-])=NN2C(C)=O)cc(OC)c1OC (stereo unspecified) , respond with its normalized growth.
OUT: 1.04

IN: Given Nc1ccccc1C(=O)N/N=C\c1cccc2ccccc12 , respond with its normalized growth.
OUT: 0.66

IN: Given Cc1nn(C)c(C)c1NS(=O)(=O)c1cc(Cl)sc1Cl , respond with its normalized growth.
OUT: 1.14

IN: Given Cc1cc(=O)n2[nH]cc(C#N)c2n1 , respond with its normalized growth.
OUT: 1.09

IN: Given CCc1cc2c(cc1C(=O)CC1(O)C(=O)Nc3ccc(Br)cc31)C(C)(C)CCC2(C)C (stereo unspecified) , respond with its normalized growth.
OUT: 1.06

IN: Given CC(=O)Nc1c(C)c(C)c(C)c(C)c1NC(C)=O , respond with its normalized growth.
OUT: 1.09

IN: Given CC(C)(C)OC(=O)C(C)(C)S(=O)(=O)c1ccc(Cl)cc1 , respond with its normalized growth.
OUT: 1.04

IN: Given Cc1cccc(NC(=S)NC2CC3C=CC2C3)c1 (stereo unspecified) , respond with its normalized growth.
OUT: 0.814

IN: Given Cc1c(S(=O)(=O)c2ccc(Cl)cc2)cnc2cc(C(C)(C)C)nn12 , respond with its normalized growth.
OUT: 1.06

IN: Given O=C(O)/C=C/C(=O)Nc1ccc(-n2nc(C(F)(F)F)cc2C(F)(F)F)cc1 , respond with its normalized growth.
OUT: 1.06

IN: Given Nc1ccc(-n2nc(C(F)(F)F)cc2C(F)(F)F)cc1 , respond with its normalized growth.
OUT: 0.694
